pIC50: −log10 of the molar value.
Recorded pIC50 for molecules tested on IRE1a (Homo sapiens, UniProt O75460), drawn from a number of studies.

{"Chemical structure": "COCCOc1cc(O)c(C=O)c2oc(=O)c(CCC(=O)NCCN(C)C)c(C)c12", "Target desc": "IRE1a (Homo sapiens, UniProt O75460)", "Assay readout": "pIC50", "Experimental value": "> 6.00"}
{"Chemical structure": "CCc1cc(-c2ccc(NS(=O)(=O)c3cc(Cl)ccc3Cl)cc2C)cc2cnc(N[C@H]3CC[C@H](N)CC3)nc12", "Target desc": "IRE1a (Homo sapiens, UniProt O75460)", "Assay readout": "pIC50", "Experimental value": "≥ 8.30"}

Entry `N[C@H]1CC[C@H](Nc2ncc3cc(-c4c(F)cc(NS(=O)(=O)c5ccccc5Cl)cc4F)ccc3n2)CC1` : reported pIC50 = ?
≥ 8.30

I would be grateful if you could share the reported pIC50 for `Cc1cc(NS(=O)(=O)c2ccccc2Cl)ccc1-c1ccc2nc(N[C@H]3CC[C@H](N)CC3)ncc2c1` .
≥ 8.30

// query pIC50 value for entry `COc1cc(O)c(C=O)c2oc(=O)c(CC(=O)NCCN3CCOCC3)c(C)c12`
> 6.00

Query: pIC50; subject: `CCc1cc(-c2ncc(NS(=O)(=O)c3ccccc3Cl)cc2F)cc2cnc(N[C@H]3CC[C@H](N)CC3)nc12`
≥ 8.30

Need pIC50 of `CCc1c(F)c(-c2ccc(NS(=O)(=O)c3ccccc3Cl)nc2C)cc2cnc(N[C@H]3CC[C@H](N(C)C)CC3)nc12` , thanks.
≥ 8.30

====

Listed below are compounds with pIC50 for IRE1a (Homo sapiens, UniProt O75460), each taken from published literature.
pIC50: −log10 of the molar value.

Example results:
{"Compound": "Cc1nc(NS(=O)(=O)c2ccccc2Cl)ncc1-c1ccc2nc(N[C@H]3CC[C@H](N)CC3)ncc2c1", "Assay readout": "pIC50", "Experimental value": "≥ 8.30"}
{"Compound": "CC(C)c1nc(-c2ccc(NS(=O)(=O)c3ccccc3F)c(F)c2Cl)c2c(N)ncc(C3=CCC(NC4COC4)CC3)n12 (stereo not shown)", "Assay readout": "pIC50", "Experimental value": 7.16}
{"Compound": "CN(C)C(=O)C1CCN(c2ccc3c(C=O)c(O)ccc3c2)C1 (stereo not shown)", "Assay readout": "pIC50", "Experimental value": "< 6.00"}
{"Compound": "CCc1cc(-c2cc(NC(=O)Cc3cccc(OC(F)(F)F)c3)nn2C)cc2cnc(N[C@H]3CC[C@H](N)CC3)nc12", "Assay readout": "pIC50", "Experimental value": "7.30 to 8.30"}
{"Compound": "CC(C)c1nc(-c2ccc(NS(=O)(=O)c3ccccc3Cl)c(F)c2)c2c(N)ncc(C3=CCC(N4CCOCC4)CC3)n12 (stereo not shown)", "Assay readout": "pIC50", "Experimental value": 7.09}
{"Compound": "CS(=O)(=O)NC1CCCN(c2ccc3c(C=O)c(O)ccc3c2)C1 (stereo not shown)", "Assay readout": "pIC50", "Experimental value": "< 6.00"}

Fill in the blank: the reported pIC50 of `CN1CCN(c2nc(-c3ccc4c(C=O)c(O)ccc4c3)cs2)CC1` is ____.
> 6.00

Please give the measured pIC50 for this compound: `CCc1cc(NS(=O)(=O)c2ccccc2Cl)nnc1-c1cc(CC)c2nc(N[C@H]3CC[C@H](N)CC3)ncc2c1`
≥ 8.30

Would you mind telling me what pIC50 value was observed for COc1nc(NS(=O)(=O)c2ccccc2Cl)ccc1CCc1ccc(NC2CCC(N)CC2)nc1 (stereo not shown) ?
8.30 to 9.00

State the recorded pIC50 for this entry: `N[C@H]1CC[C@H](Nc2ncc3cc(-c4ccc(NS(=O)(=O)c5ccccc5Cl)c(F)c4)ccc3n2)CC1`
≥ 8.30

Data request, read-out pIC50, for CN(Cc1ccncc1)C(=O)C1CCN(c2ccc3ccc(O)c(C=O)c3c2)C1 (stereo not shown)
< 6.00

Can you share its pIC50? I mean this compound: `CCc1cc(-c2cnc(NS(=O)(=O)c3ccccc3Cl)nc2)cc2cnc(N[C@H]3CC[C@H](N)CC3)nc12`
≥ 8.30

====

From various publications: IC50 for IRE1a (Homo sapiens).

{"Compound": "CCc1cc(-c2cc(NC(=O)C(C)c3cccc(C(F)(F)F)c3)nn2C)cc2cnc(N[C@H]3CC[C@H](N)CC3)nc12 (stereo partly shown)", "IC50": "5 to 50 nM"}

Lab note: need IC50 for `CCc1cc(-c2cc(NC(=O)Cc3cccc(C(F)(F)F)c3)nn2C)cc2cnc(N[C@H]3CC[C@H](N)CC3)nc12` on IRE1a (Homo sapiens), anyone have it?
≤ 5 nM

Could you share what IC50 was measured for CN1CCN(C(=O)C2CCN(c3ccc4c(C=O)c(O)ccc4c3)C2)CC1 (stereo not shown) , tested on IRE1a (Homo sapiens)?
< 1000 nM

Notebook: pull reported IC50 for IRE1a (Homo sapiens), entry CN(Cc1ccncc1)C1CCN(c2ccc3c(C=O)c(O)ccc3c2)C1 (stereo not shown)
> 1000 nM

Item: COc1nc(NS(=O)(=O)c2ccccc2Cl)ccc1/C=C/c1cnc(NC2CCC(N(C)C)CC2)nc1 (stereo not shown) Test system: IRE1a (Homo sapiens) Read-out: IC50 Value: ?
≤ 1 nM

Hello, I am looking for reported IC50 with IRE1a (Homo sapiens) for CC(=O)N(C)C1CCN(c2ccc3ccc(O)c(C=O)c3c2)C1 (stereo not shown) . Could you help?
> 1000 nM

Please tell me: IC50 of `CCc1cc(-c2cnc(NS(=O)(=O)c3ccccc3Cl)nc2OC)cc2cnc(N[C@H]3CC[C@H](N)CC3)nc12` , system IRE1a (Homo sapiens)?
≤ 5 nM

Could you share what IC50 was measured for `Cc1cc(NS(=O)(=O)CC(F)(F)F)c2ccccc2c1Oc1ncccc1-c1ccnc(N[C@H]2CCCNC2)n1` , tested on IRE1a (Homo sapiens)?
8 nM

Identify the measured IC50 of `COc1nc(NS(=O)(=O)c2ccccc2Cl)c(F)cc1-c1cc(C)c2nc(N[C@H]3CC[C@@H](N(C)C)CC3)ncc2c1` for IRE1a (Homo sapiens).
5 to 50 nM

Hello, I am looking for reported IC50 with IRE1a (Homo sapiens) for `CCNC(=O)Cc1c(C)c2cc(OC)c(O)c(C=O)c2oc1=O` . Could you help?
< 100 nM

# value lookup — system IRE1a (Homo sapiens), readout IC50, item `CCc1cc(-c2cc(NC(=O)Cc3ccc(C(F)(F)F)cc3)nn2C)cc2cnc(N[C@H]3CC[C@H](N)CC3)nc12`
≤ 5 nM

// map CN(Cc1ccccc1)C1CCN(c2ccc3ccc(O)c(C=O)c3c2)C1 (stereo not shown) to recorded IC50 (system: IRE1a (Homo sapiens))
> 1000 nM

What is its IC50 for IRE1a (Homo sapiens)? Entry: `CCc1cc(-c2ccc(NS(=O)(=O)c3ccc(Cl)cc3)cc2C)cc2cnc(N[C@H]3CC[C@H](N)CC3)nc12`
> 100 nM

# query: IC50 | item `CCc1cc(-c2ccc(NS(=O)(=O)c3ccccc3Cl)c(F)c2)cc2cnc(NC34CCC(N)(CC3)CC4)nc12` | system: IRE1a (Homo sapiens)
≤ 5 nM

Look up IC50 with IRE1a (Homo sapiens) for this compound: `COc1ccc(CNC(=O)c2cccc(-c3ccc4c(C=O)c(O)ccc4c3)n2)cc1`
< 1000 nM

Hi! What's the reported IC50 for Cc1cc(NS(=O)(=O)c2ccccc2Cl)cc(F)c1/C=C/c1cnc(NC2CCC(N(C)C)CC2)nc1 (stereo not shown) on IRE1a (Homo sapiens)?
≤ 1 nM

Notebook: pull reported IC50 for IRE1a (Homo sapiens), entry CN(Cc1ccncc1)C1CCN(c2ccc3ccc(O)c(C=O)c3c2)C1 (stereo not shown)
> 1000 nM

Entry `CCc1cc(-c2cc(NC(=O)Cc3ccc(OCCCNC)c(C(F)(F)F)c3)nn2C)cc2cnc(N[C@H]3CC[C@H](N)CC3)nc12` , system IRE1a (Homo sapiens): what IC50 was measured?
≤ 5 nM

What IC50 appears in the records for this compound with IRE1a (Homo sapiens)? CNC1CCC(Nc2ncc(/C=C/c3ccc(NS(=O)(=O)c4ccccc4Cl)nc3OC)cn2)CC1 (stereo not shown)
≤ 1 nM

Lookup: IC50 / IRE1a (Homo sapiens) / CN(C)C(=O)C1CCN(c2ccc3ccc(O)c(C=O)c3c2)C1 (stereo not shown)
> 1000 nM

What value of IC50 on IRE1a (Homo sapiens) does `CNC(=O)c1cccc(-c2ccc3c(C=O)c(O)ccc3c2)c1` have?
< 100 nM

Query the reported IC50 for IRE1a (Homo sapiens); item: `COCCNC(=O)CCc1c(COC)c2cc(OC)c(O)c(C=O)c2oc1=O`
< 1000 nM

For the record `O=Cc1c(O)ccc2cc(N3CCN(C4CCNCC4)CC3)ccc12` , what value of IC50 is listed for IRE1a (Homo sapiens)?
> 1000 nM

Short answer please: IC50, IRE1a (Homo sapiens), entry `COc1cc2c(C)c(-c3ccc(C(=O)N4CCN(C)CC4)s3)c(=O)oc2c(C=O)c1O`
< 100 nM

Missing value: IC50, IRE1a (Homo sapiens), entry `O=Cc1c(O)ccc2cc(-c3ccc(C(=O)N4CCCC4)nc3)ccc12` . Fill in?
< 1000 nM

For IRE1a (Homo sapiens), provide IC50 of `CC(C)n1nc(-c2cc(F)c(NS(=O)(=O)Cc3ccccc3F)cc2F)c2c(N)ncc([C@H]3CC[C@H](N4CCOCC4)CC3)c21` please.
2.1 nM

// fetch IRE1a (Homo sapiens) IC50 for `CCc1cc(-c2cc(NC(=O)[C@H](N)c3ccccc3)nn2C)cc2cnc(N[C@H]3CC[C@H](N)CC3)nc12`
> 100 nM

Record lookup: for IRE1a (Homo sapiens), what IC50 belongs to CCc1nc(NS(=O)(=O)c2ccccc2Cl)ccc1/C=C/c1cnc(NC2CCC(N(C)C)CC2)nc1 (stereo not shown) ?
≤ 1 nM

What value of IC50 on IRE1a (Homo sapiens) does CN1CCCC(NC(=O)c2ccc(-c3ccc4c(C=O)c(O)ccc4c3)s2)C1 (stereo not shown) have?
< 100 nM

Fill in the recorded IC50 for this compound, with IRE1a (Homo sapiens) as test system: `CC(C)N1CCN(c2ccc3c(C=O)c(O)ccc3c2)CC1`
> 1000 nM

What measured IC50 is associated with `CN1CCN(C(=O)c2cnc(-c3ccc4c(C=O)c(O)ccc4c3)s2)CC1` on IRE1a (Homo sapiens)?
< 100 nM
